Reported IC50 values for a set of compounds
# TARGET_OR_SYSTEM: Fatty acid synthase (Homo sapiens, UniProt P49327)
# Sequence (P49327 whole entry, the tested form may be a part): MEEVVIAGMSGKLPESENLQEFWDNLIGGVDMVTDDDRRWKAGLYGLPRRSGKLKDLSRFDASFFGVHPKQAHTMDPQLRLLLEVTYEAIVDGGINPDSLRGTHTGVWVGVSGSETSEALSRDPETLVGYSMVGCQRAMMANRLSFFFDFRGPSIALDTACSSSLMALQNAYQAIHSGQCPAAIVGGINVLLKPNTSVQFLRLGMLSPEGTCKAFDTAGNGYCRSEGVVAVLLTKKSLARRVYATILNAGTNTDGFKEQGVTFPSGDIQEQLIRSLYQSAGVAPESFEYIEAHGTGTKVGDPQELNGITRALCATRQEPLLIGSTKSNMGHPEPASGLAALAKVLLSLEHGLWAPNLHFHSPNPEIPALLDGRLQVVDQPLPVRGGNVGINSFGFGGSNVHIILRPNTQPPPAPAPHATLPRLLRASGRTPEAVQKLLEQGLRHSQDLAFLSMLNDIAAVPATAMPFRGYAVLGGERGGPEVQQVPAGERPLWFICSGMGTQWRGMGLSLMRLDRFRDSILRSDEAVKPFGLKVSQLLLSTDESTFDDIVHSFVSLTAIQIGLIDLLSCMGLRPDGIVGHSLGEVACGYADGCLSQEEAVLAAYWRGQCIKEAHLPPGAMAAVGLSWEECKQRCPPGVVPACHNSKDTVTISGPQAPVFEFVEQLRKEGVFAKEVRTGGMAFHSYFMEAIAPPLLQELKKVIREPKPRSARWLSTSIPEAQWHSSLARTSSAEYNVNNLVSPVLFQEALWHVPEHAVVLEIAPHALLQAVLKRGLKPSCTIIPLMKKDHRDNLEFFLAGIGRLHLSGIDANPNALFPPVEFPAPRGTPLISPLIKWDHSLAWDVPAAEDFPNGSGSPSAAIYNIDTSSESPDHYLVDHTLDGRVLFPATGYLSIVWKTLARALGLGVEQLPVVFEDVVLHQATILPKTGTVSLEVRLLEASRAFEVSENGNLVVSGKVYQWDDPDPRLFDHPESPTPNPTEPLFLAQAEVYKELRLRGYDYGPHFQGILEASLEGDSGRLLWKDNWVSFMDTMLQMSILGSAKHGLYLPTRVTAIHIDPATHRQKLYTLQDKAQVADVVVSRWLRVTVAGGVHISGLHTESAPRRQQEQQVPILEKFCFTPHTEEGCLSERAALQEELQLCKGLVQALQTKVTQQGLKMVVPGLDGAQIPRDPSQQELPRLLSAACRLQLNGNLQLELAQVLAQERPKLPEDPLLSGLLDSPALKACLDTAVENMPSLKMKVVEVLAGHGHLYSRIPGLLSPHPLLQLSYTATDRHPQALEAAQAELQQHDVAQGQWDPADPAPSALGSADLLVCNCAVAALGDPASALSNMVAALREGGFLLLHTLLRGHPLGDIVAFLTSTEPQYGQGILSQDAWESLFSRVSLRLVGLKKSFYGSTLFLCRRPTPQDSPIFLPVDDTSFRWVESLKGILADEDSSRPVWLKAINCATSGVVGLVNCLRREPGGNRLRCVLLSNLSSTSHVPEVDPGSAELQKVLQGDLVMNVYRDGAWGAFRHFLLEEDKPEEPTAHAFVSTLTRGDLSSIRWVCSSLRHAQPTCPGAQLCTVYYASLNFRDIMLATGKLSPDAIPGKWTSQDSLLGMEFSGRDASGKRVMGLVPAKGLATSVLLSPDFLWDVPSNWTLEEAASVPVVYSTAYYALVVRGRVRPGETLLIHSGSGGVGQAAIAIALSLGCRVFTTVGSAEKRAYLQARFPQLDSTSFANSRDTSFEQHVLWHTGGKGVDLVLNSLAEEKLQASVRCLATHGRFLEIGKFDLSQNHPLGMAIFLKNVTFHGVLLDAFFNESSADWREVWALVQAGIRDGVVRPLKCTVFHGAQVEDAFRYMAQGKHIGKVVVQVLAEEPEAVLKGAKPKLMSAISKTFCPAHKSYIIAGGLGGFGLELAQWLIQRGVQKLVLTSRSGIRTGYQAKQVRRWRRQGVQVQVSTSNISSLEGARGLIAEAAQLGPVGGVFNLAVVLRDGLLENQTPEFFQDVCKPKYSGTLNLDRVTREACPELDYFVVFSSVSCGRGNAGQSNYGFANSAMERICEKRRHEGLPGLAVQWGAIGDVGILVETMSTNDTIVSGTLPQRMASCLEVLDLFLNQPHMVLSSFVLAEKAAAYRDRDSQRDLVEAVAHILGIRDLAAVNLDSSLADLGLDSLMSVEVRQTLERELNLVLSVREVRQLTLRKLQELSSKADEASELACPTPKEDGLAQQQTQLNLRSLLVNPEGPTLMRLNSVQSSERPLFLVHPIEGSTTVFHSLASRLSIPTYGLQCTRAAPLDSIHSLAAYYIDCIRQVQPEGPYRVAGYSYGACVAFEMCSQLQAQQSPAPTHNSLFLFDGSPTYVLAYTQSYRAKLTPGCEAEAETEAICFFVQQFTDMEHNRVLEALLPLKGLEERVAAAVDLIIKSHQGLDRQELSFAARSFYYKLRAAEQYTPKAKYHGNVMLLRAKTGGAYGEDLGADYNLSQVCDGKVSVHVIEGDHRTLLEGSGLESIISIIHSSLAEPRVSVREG
# EXPERIMENTAL_PROTOCOL: FAS thioesterase domain inhibitors, dose response, biochemical, kinetic fluorescence intensity (AID 624326);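 also: rate of fluorescence rise from hydrolysis of a fluorogenic O-methyl fluorescein ester substrate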
# Assay type: functional
Activity calls are given as the source filed them.

Exam item: # IC50 lookup, item Cc1[nH]n(-c2ccccc2)c(=O)c1C(c1ccc([N+](=O)[O-])cc1)c1c(C)[nH]n(-c2ccccc2)c1=O
Marked response: 5.6 µM (active)

Exam item: # iterate: O[C@H]1C[C@H](c2ccccc2)N(CC2CCCCC2)C[C@@H]1n1cc(C2CC2)nn1
Marked response: 6.52 µM (active)

Exam item: # iterate: COc1ccc(C(=O)CN(CCC(=O)O)S(=O)(=O)c2ccc([N+](=O)[O-])cc2)cc1
Marked response: 6.15 µM (active)

Exam item: # iterate: CC(OC(=O)c1cccc([N+](=O)[O-])c1)C(=O)N1CCc2ccccc21 (stereo not given)
Marked response: 3.98 µM (active)

Exam item: # iterate: O=C(O)COc1ccccc1C=NNc1ccc([N+](=O)[O-])cc1S(=O)(=O)Nc1ccc(Cl)cc1
Marked response: 12.5 µM (active)

====

# TARGET_OR_SYSTEM: Corticotropin-releasing factor receptor 2/Corticotropin-releasing factor-binding protein (Homo sapiens, UniProt P24387+Q13324)
# Sequence (Q13324 whole entry): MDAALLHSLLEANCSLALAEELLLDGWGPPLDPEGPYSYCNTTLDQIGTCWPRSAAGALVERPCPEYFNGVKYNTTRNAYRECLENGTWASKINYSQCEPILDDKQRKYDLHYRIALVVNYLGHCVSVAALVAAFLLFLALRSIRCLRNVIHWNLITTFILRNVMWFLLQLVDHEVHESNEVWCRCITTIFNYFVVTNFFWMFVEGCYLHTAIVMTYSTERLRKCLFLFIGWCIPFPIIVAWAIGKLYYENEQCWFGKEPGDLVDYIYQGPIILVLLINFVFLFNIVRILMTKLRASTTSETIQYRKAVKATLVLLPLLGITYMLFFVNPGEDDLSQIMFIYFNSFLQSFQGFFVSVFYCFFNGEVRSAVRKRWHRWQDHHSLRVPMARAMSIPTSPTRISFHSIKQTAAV
# Sequence (P24387 whole entry): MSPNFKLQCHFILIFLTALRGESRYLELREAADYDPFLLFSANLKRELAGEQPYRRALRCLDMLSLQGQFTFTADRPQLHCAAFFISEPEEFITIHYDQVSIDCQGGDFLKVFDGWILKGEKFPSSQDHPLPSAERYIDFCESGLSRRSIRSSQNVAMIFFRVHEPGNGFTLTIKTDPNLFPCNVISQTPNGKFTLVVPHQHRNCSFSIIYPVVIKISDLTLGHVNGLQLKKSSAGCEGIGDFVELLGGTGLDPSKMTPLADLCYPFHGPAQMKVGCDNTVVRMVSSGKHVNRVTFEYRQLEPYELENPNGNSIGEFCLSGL
# EXPERIMENTAL_PROTOCOL: Dose Response confirmation of uHTS hits for small molecule antagonists of the CRF-binding protein and CRF-R2 receptor complex.
# Assay type: functional
# RUN_PARAMETERS: read-out: IC50_Mean
Calls of active or inactive are those of the source.
Outcomes you can answer with include only these: T = active, F = inactive

COCc1cc(O)n2nc(-c3ccccc3)cc2n1	F

Exam item: Field: outcome | Entry: Cc1ccc(NC(=O)CSc2nc3ccccc3c(=O)n2CCCC(=O)NCCCN2CCOCC2)cc1
Marked response: F

Exam item: # iterate: COc1ccc(-c2c(C(F)(F)F)nn3c(O)cc(-c4ccccc4)nc23)cc1
Marked response: T

====

# TARGET_OR_SYSTEM: Glyceraldehyde-3-phosphate dehydrogenase (Homo sapiens)
# Sequence (P04406 whole entry): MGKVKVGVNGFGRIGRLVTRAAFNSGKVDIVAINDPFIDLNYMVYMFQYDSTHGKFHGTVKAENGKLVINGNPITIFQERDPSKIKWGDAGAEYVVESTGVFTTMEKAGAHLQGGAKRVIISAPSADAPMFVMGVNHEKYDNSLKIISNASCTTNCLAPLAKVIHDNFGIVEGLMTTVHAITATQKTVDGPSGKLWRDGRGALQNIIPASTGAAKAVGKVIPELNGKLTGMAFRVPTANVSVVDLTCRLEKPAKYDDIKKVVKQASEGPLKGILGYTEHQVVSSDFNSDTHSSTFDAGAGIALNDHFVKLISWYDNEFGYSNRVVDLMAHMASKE
Calls of active or inactive are those of the source.
METRIC_NAME: IC50

Here's what some known entries look like.
O=C1c2c(Cl)c(Cl)c(Cl)c(Cl)c2C(=O)N1c1nnc[nH]1	5.3 µM (active)
CCc1ccc(-c2ccc(-c3nc(N)nn3-c3ccccc3)cc2)cc1	> 100 µM (not active)
Nc1cc(-c2ccc(Cl)cc2)nn1S(=O)(=O)c1c(F)c(F)c(F)c(F)c1F	> 100 µM (not active)
CCCCCCCCCCCCCCCCCCC#CCCCCCCCCCCC(=O)O	> 100 µM (not active)
CN1CCN(C2=C(Cl)C(=O)N(c3cccc(C(F)(F)F)c3)C2=O)CC1	> 50 µM (inconclusive)

Now examine the next entry.
Exam item: What reported IC50 corresponds to COC(=O)c1cc(-c2ccc([N+](=O)[O-])cc2)[nH]n1 on Glyceraldehyde-3-phosphate dehydrogenase (Homo sapiens)?
Marked response: > 100 µM (not active)

====

# Tested on: Streptococcus sp. 'group A'
# EXPERIMENTAL_PROTOCOL: growth inhibition of control SK(-) GAS strain, dose response, counter-screen for streptokinase expression inhibitor project, luminescence, kanamycin, BacTiterGlo, confirmation (AID 1900)
# Assay type: functional, organism-based
Calls of active or inactive are those of the source.
METRIC_NAME: EC50

Here's what some known entries look like.
Cc1cc(Oc2cnn(C(C)(C)C)c(=O)c2Cl)cc(C(C)C)c1	6.31 µM (active)
COC(=O)c1c(NC(=O)c2ccn(C)n2)sc2c1CCC2	> 150 µM (not active)

Now examine the next entry.
Exam item: # EC50 lookup, item CC(=O)N1CCN(c2ccccc2NC(=O)c2cccs2)CC1
Marked response: > 150 µM (not active)
